test system: NHBE cells; experiment: Biolog metabolic array: substrate use by NHBE cells with or without CA09 infection; type: cell-based, human; details: Virus (CA09-infected NHBE cells, MOI 1); 1 hr
Would you mind telling me the reported 590 nm absorbance normalized to zero hour (substrate use), 1 hr of each entry?
Answers are plain numbers.

Consider the reported 590 nm absorbance normalized to zero hour (substrate use), 1 hr for these compounds:
| COMPOUND | QUANTITATIVE RESULT |
| --- | --- |
| O=C(O)CCC(=O)C(=O)O | 0.28 |
| CCC(=O)C(=O)O | 0.28 |
| OC[C@H]1O[C@H](OC[C@H]2OC(O)(CO)[C@@H](O)[C@@H]2O)[C@H](O)[C@@H](O)[C@@H]1O (stereo partly shown) | 0.18 |
| CCCCCC(=O)O | 0.25 |
| CC(O)C(C)O (stereo not shown) | 1.66 |

Each compound below has a reported value. Please supply its 590 nm absorbance normalized to zero hour (substrate use), 1 hr.
1. OC[C@@H]1OC(O)[C@@H](O)[C@H](O)[C@H]1O (stereo partly shown)
2. O=C(O)C(O)C(O)C(=O)O (stereo not shown)
3. O=C(O)C[C@@H](O)C(=O)O
4. O=C(CO)[C@@H](O)[C@H](O)[C@@H](O)CO

Resp:
1. 0.29
2. 1.50
3. 2.26
4. 0.18

Req: For `OC[C@H]1O[C@@H](O[C@H]2[C@H](O)[C@@H](O)[C@@H](O)O[C@@H]2CO)[C@H](O)[C@@H](O)[C@H]1O` , what is its reported 590 nm absorbance normalized to zero hour (substrate use), 1 hr?
Resp: 0.17
